The reported measurements were obtained from patent EP1203770A1.

Molecular target: HIV-1 protease (Human immunodeficiency virus type 1 group M subtype B)
Construct: The protease (or proteinase), consisting of only 99 amino acids, is among the smallest enzymes known
Test: In vitro HIV protease inhibitory assay (HIV Protease FITC Assay)
Type: biochemical
Settings: HIV-1 Dose 30.000 uM; read-out: HIV-1 Protease % Inhib
Below: a set of entries, each annotated with reported inhibition at 30 µM.

compound	study-target	inhibition at 30 µM, %
C=CC(C1=C(O)CC2(CCCCCC2)OC1=O)c1ccccc1 (stereo not drawn)	HIV-1 protease (Human immunodeficiency virus type 1 group M subtype B)	102
O=c1oc(CC(O)c2cccc(Cl)c2)cc(O)c1C(c1ccccc1)C1CC1 (stereo not drawn)	HIV-1 protease (Human immunodeficiency virus type 1 group M subtype B)	91
CCCC1(CCCc2ccccc2)CC(O)=C(C(CCc2ccccc2)c2ccccc2)C(=O)O1 (stereo not drawn)	HIV-1 protease (Human immunodeficiency virus type 1 group M subtype B)	85.7
C=CC(C1=C(O)CC2(CCCCCCC2)OC1=O)c1ccccc1 (stereo not drawn)	HIV-1 protease (Human immunodeficiency virus type 1 group M subtype B)	89.7
CCCC(CC1CCCOC1)c1cc(O)c(C(c2ccccc2)C2CC2)c(=O)o1 (stereo not drawn)	HIV-1 protease (Human immunodeficiency virus type 1 group M subtype B)	97.7
CCC(Cc1ccccc1)c1cc(O)c(C(c2cccc(NS(=O)(=O)c3ccc(C)cc3)c2)C2CC2)c(=O)o1 (stereo not drawn)	HIV-1 protease (Human immunodeficiency virus type 1 group M subtype B)	93.3
O=c1oc(CC(O)c2ccsc2)cc(O)c1C(c1ccccc1)C1CC1 (stereo not drawn)	HIV-1 protease (Human immunodeficiency virus type 1 group M subtype B)	99.7
CC(C)C(Cc1ccccc1)c1cc(O)c(C(c2ccccc2)C2CC2)c(=O)o1 (stereo not drawn)	HIV-1 protease (Human immunodeficiency virus type 1 group M subtype B)	102
CCC(Cc1ccccc1)c1cc(O)c(C(c2cccc(NS(=O)(=O)c3cc(Cl)ccc3Cl)c2)C2CC2)c(=O)o1 (stereo not drawn)	HIV-1 protease (Human immunodeficiency virus type 1 group M subtype B)	96.5
CCC(CC1CCCCN1S(=O)(=O)c1ccc(C)cc1)c1cc(O)c(C(c2ccccc2)C2CC2)c(=O)o1 (stereo not drawn)	HIV-1 protease (Human immunodeficiency virus type 1 group M subtype B)	77.1
CCC(Cc1ccc(C(F)(F)F)cc1)c1cc(O)c(C(c2ccccc2)C2CC2)c(=O)o1 (stereo not drawn)	HIV-1 protease (Human immunodeficiency virus type 1 group M subtype B)	92.1
CCCCC1(Cc2ccccc2)CC(O)=C(C(CCc2ccccc2)c2ccccc2)C(=O)O1 (stereo not drawn)	HIV-1 protease (Human immunodeficiency virus type 1 group M subtype B)	58.2
CCC(Cc1ccccc1)c1cc(O)c(C(c2cccc(NC(=O)[C@H](Cc3cn(S(=O)(=O)c4ccc(C)cc4)cn3)NC(=O)OC(C)(C)C)c2)C2CC2)c(=O)o1 (stereo partly drawn)	HIV-1 protease (Human immunodeficiency virus type 1 group M subtype B)	95.8
O=c1oc(CC(O)c2ccc(Cl)cc2)cc(O)c1C(c1ccccc1)C1CC1 (stereo not drawn)	HIV-1 protease (Human immunodeficiency virus type 1 group M subtype B)	103
O=C1OC(CCc2ccccc2)(CCc2ccccc2)CC(O)=C1C(C=Cc1ccccc1)c1ccccc1 (stereo not drawn)	HIV-1 protease (Human immunodeficiency virus type 1 group M subtype B)	78.7
O=c1oc(CC(O)c2ccccc2Cl)cc(O)c1C(c1ccccc1)C1CC1 (stereo not drawn)	HIV-1 protease (Human immunodeficiency virus type 1 group M subtype B)	88.4
CCC(Cc1ccccc1)c1cc(O)c(C(c2cccc(NS(=O)(=O)c3ccc(OC)cc3)c2)C2CC2)c(=O)o1 (stereo not drawn)	HIV-1 protease (Human immunodeficiency virus type 1 group M subtype B)	92.9
O=c1oc(CC(O)c2ccc(F)cc2)cc(O)c1C(c1ccccc1)C1CC1 (stereo not drawn)	HIV-1 protease (Human immunodeficiency virus type 1 group M subtype B)	89.7
C=CC(C1=C(O)CC(CCC)(CCc2ccccc2)OC1=O)c1ccccc1 (stereo not drawn)	HIV-1 protease (Human immunodeficiency virus type 1 group M subtype B)	106
C=CC(C1=C(O)CC(CCc2ccccc2)(CC(C)C)OC1=O)c1ccccc1 (stereo not drawn)	HIV-1 protease (Human immunodeficiency virus type 1 group M subtype B)	59.4
O=c1oc(CCCF)cc(O)c1C(c1ccccc1)C1CC1 (stereo not drawn)	HIV-1 protease (Human immunodeficiency virus type 1 group M subtype B)	84.4
CCC(Cc1ccccc1)c1cc(O)c(C2(c3ccccc3)CCC2)c(=O)o1 (stereo not drawn)	HIV-1 protease (Human immunodeficiency virus type 1 group M subtype B)	64.8
CCCC1(Cc2ccccc2)CC(O)=C(C(CCc2ccccc2)c2ccccc2)C(=O)O1 (stereo not drawn)	HIV-1 protease (Human immunodeficiency virus type 1 group M subtype B)	95
CCC(Cc1ccccc1)c1cc(O)c(C(c2cccc(NC(=O)Cc3ccccn3)c2)C2CC2)c(=O)o1 (stereo not drawn)	HIV-1 protease (Human immunodeficiency virus type 1 group M subtype B)	109
CCC(CC1CC(=O)N(Cc2ccccc2)C1)c1cc(O)c(C(c2ccccc2)C2CC2)c(=O)o1 (stereo not drawn)	HIV-1 protease (Human immunodeficiency virus type 1 group M subtype B)	104
CCC(CCN1CCOCC1)c1cc(O)c(C(c2ccccc2)C2CC2)c(=O)o1 (stereo not drawn)	HIV-1 protease (Human immunodeficiency virus type 1 group M subtype B)	45.9
CCCC1(CCCc2ccccc2)CC(O)=C(C(C=Cc2ccccc2)c2ccccc2)C(=O)O1 (stereo not drawn)	HIV-1 protease (Human immunodeficiency virus type 1 group M subtype B)	87.1
CCC(Cc1ccccc1C(F)(F)F)c1cc(O)c(C(c2ccccc2)C2CC2)c(=O)o1 (stereo not drawn)	HIV-1 protease (Human immunodeficiency virus type 1 group M subtype B)	72.3
O=c1oc(CC2CCOCC2)cc(O)c1C(c1ccccc1)C1CC1 (stereo not drawn)	HIV-1 protease (Human immunodeficiency virus type 1 group M subtype B)	22.7
O=c1oc(CCc2ccc(Br)cc2)cc(O)c1C(c1ccccc1)C1CC1 (stereo not drawn)	HIV-1 protease (Human immunodeficiency virus type 1 group M subtype B)	81.1
CC(C)CC1(CCc2ccccc2)CC(O)=C(C(c2ccccc2)c2ccccc2)C(=O)O1 (stereo not drawn)	HIV-1 protease (Human immunodeficiency virus type 1 group M subtype B)	77.8
CCC(Cc1ccncc1)c1cc(O)c(C(c2ccccc2)C2CC2)c(=O)o1 (stereo not drawn)	HIV-1 protease (Human immunodeficiency virus type 1 group M subtype B)	112
CCC(Cc1ccccc1)c1cc(O)c(C(c2cccc(NS(=O)(=O)/C=C/c3ccccc3)c2)C2CC2)c(=O)o1 (stereo not drawn)	HIV-1 protease (Human immunodeficiency virus type 1 group M subtype B)	98
